# targetDesc: MDM2 (Homo sapiens, UniProt Q00987)
# Sequence (Q00987 1-125): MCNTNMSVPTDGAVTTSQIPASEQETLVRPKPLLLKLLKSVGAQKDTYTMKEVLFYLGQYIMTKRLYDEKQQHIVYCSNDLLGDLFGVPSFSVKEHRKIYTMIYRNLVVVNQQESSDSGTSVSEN
# experiment: Competitive fluorescence polarization assay for MDM2
# Assay type: binding
# studyConditions: competitive FP assay, MDM2; read-out: Ki (MDM2)
Where a SMILES comes first, the peptide text is derived from it. Bridges are numbered along the chain shown (N, C = ends). [ ]: non-standard residue; d: D form. Phe(3,4-F2) = N[C@@H](Cc1ccc(F)c(F)c1)C(=O)O; R8 = C=CCCCCCC[C@@](C)(N)C(=O)O; Cba = N[C@@H](CC1CCC1)C(=O)O; S5 = C=CCCC[C@](C)(N)C(=O)O; Nle = CCCC[C@H](N)C(=O)O
propertyName: Ki

// query Could you tell me which Ki is on file for CCCC[C@H](NC(=O)[C@H](C)NC(=O)[C@H](CO)NC(=O)[C@]1(C)CCCC=CCCCCCC[C@@](C)(NC(=O)[C@H](Cc2ccc(F)c(F)c2)NC(=O)[C@@H](NC(=O)[C@H](CC(C)C)NC(C)=O)[C@@H](C)O)C(=O)N[C@@H](CCC(=O)O)C(=O)N[C@@H](Cc2ccc(O)cc2)C(=O)N[C@@H](Cc2c[nH]c3ccccc23)C(=O)N[C@@H](C)C(=O)N[C@@H](CCC(N)=O)C(=O)N[C@@H](CC2CCC2)C(=O)N1)C(=O)N[C@@H](C)C(N)=O [compound 243] (Ac-LT[Phe(3,4-F2)][R8]EYWAQ[Cba][S5]SA[Nle]A-NH2; staple 4-11) ?
// result < 0.01 µM

* * *

# targetDesc: MDMX (Homo sapiens, UniProt O15151)
# Sequence (O15151 1-125): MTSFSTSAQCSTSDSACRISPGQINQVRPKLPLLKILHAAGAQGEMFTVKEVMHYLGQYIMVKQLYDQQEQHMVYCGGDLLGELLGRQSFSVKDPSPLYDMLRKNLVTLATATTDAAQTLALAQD
# experiment: Competitive fluorescence polarization assay for MDMX
# Assay type: binding
# studyConditions: competitive FP assay, read-out: IC50 (MDMX)
Where a SMILES comes first, the peptide text is derived from it. Bridges are numbered along the chain shown (N, C = ends). [ ]: non-standard residue; d: D form. dPhe(4-CF3) = N[C@H](Cc1ccc(C(F)(F)F)cc1)C(=O)O; R8 = C=CCCCCCC[C@@](C)(N)C(=O)O; S8 = C=CCCCCCC[C@](C)(N)C(=O)O; R5 = C=CCCC[C@@](C)(N)C(=O)O; S5 = C=CCCC[C@](C)(N)C(=O)O; Nle = CCCC[C@H](N)C(=O)O; Ac3c = NC1(C(=O)O)CC1
propertyName: IC50

>  <molecule>
CC(=O)N[C@@H](Cc1ccccc1)C(=O)N[C@]1(C)CCCCCCC=CCCC[C@@](C)(C(=O)N[C@@H](C)C(=O)N[C@@H](C)C(=O)N[C@@H](CC(C)C)C(N)=O)NC(=O)[C@H](CC(C)C)NC(=O)C2(CC2)NC(=O)[C@H](CCC(=O)O)NC(=O)[C@H](Cc2c[nH]c3ccccc23)NC(=O)[C@H](Cc2ccc(O)cc2)NC(=O)[C@H](C)NC1=O [compound 15] (Ac-F[R8]AYWE[Ac3c]L[S5]AAL-NH2; staple 2-9)

>  <IC50>
100 to 1000 nM

$$$$
>  <molecule>
CCCC[C@H](NC(=O)[C@H](C)NC(=O)[C@H](C)NC(=O)[C@]1(C)CCCC=CCCCCCC[C@@](C)(NC(=O)[C@H](Cc2ccccc2)NC(=O)[C@@H](NC(=O)[C@H](CC(C)C)NC(C)=O)[C@@H](C)O)C(=O)N[C@@H](C)C(=O)N[C@@H](Cc2ccc(O)cc2)C(=O)N[C@@H](Cc2c[nH]c3ccccc23)C(=O)N[C@@H](C)C(=O)N[C@@H](CCC(N)=O)C(=O)N[C@@H](CC(C)C)C(=O)N1)C(=O)N[C@@H](C)C(=O)NCCC(C)(C)C (single isomer, unassigned)

>  <IC50>
10 to 100 nM

$$$$
>  <molecule>
CC(=O)N[C@@H](CC(C)C)C(=O)N[C@H](C(=O)N[C@@H](Cc1ccccc1)C(=O)N[C@]1(C)CCCCCCC=CCCC[C@@](C)(C(=O)N[C@@H](CO)C(=O)N[C@@H](C)C(=O)N[C@@H](CO)C(N)=O)NC(=O)[C@H](CC(C)C)NC(=O)[C@H](CCC(N)=O)NC(=O)[C@H](C)NC(=O)[C@H](Cc2c[nH]c3ccccc23)NC(=O)[C@H](Cc2ccc(O)cc2)NC(=O)[C@H](C(C)C)NC1=O)[C@@H](C)O (single isomer, unassigned)

>  <IC50>
100 to 1000 nM

$$$$
>  <molecule>
CCCC[C@H](NC(=O)[C@H](C)NC(=O)[C@H](C)NC(=O)[C@]1(C)CCCC=CCCCCCC[C@@](C)(NC(=O)[C@H](Cc2ccccc2)NC(=O)[C@@H](NC(=O)[C@H](C)NC(=O)[C@H](C)NC(C)=O)[C@@H](C)O)C(=O)N[C@@H](CCC(=O)O)C(=O)N[C@@H](Cc2ccc(O)cc2)C(=O)N[C@@H](Cc2c[nH]c3ccccc23)C(=O)N[C@@H](C)C(=O)N[C@@H](CCC(N)=O)C(=O)N[C@@H](CC(C)C)C(=O)N1)C(=O)N[C@@H](C)C(N)=O [compound 374] (Ac-AATF[R8]EYWAQL[S5]AA[Nle]A-NH2; staple 5-12)

>  <IC50>
10 to 100 nM

$$$$

// query Which IC50 is reported for this molecule? CC(=O)N[C@@H](C(=O)N[C@@]1(C)CCCCCCC=CCCC[C@](C)(C(=O)N[C@H](CC(C)C)C(=O)N[C@H](CC(C)C)C(=O)N[C@H](CCCNC(=N)N)C(N)=O)NC(=O)[C@@H](CCC(=O)O)NC(=O)[C@@H](Cc2ccc(C(F)(F)F)cc2)NC(=O)[C@@H](CC(N)=O)NC(=O)[C@@H](C)NC(=O)[C@@H](Cc2ccc(O)cc2)NC(=O)[C@@H](Cc2c[nH]c3ccccc23)NC1=O)[C@H](C)O [compound 756] (Ac-[dT][S8][dW][dY][dA][dN][dPhe(4-CF3)][dE][R5][dL][dL][dR]-NH2; staple 2-9)
// result > 1000 nM
